System: Staphylococcus aureus
ASSAY TEXT: Antibacterial activity against erythromycin-susceptible Staphylococcus aureus ATCC 25923 by broth microdilution method
Format: functional
I'd be grateful if you could share measured MIC for these entries.
One number for each entry, in µg/mL.

{"SMILES STRUCTURE": "CC[C@H]1OC(=O)[C@H](C)[C@@H](OC(=O)Nc2cccc(OC)c2)[C@H](C)[C@@H](O[C@@H]2O[C@H](C)C[C@H](N(C)C)[C@H]2OC(C)=O)[C@](C)(O)C[C@@H](C)CN(C)[C@H](C)[C@H]2OC(=O)O[C@@]21C", "RESULT VALUE": 32}
{"SMILES STRUCTURE": "CC[C@H]1OC(=O)[C@H](C)[C@@H](OC(=O)Nc2ccccc2C)[C@H](C)[C@@H](O[C@@H]2O[C@H](C)C[C@H](N(C)C)[C@H]2O)[C@](C)(O)C[C@@H](C)CN(C)[C@H](C)[C@H]2OC(=O)O[C@@]21C", "RESULT VALUE": 4}
{"SMILES STRUCTURE": "CC[C@H]1OC(=O)[C@H](C)[C@@H](OC(=O)Nc2cccc(C)c2)[C@H](C)[C@@H](O[C@@H]2O[C@H](C)C[C@H](N(C)C)[C@H]2O)[C@](C)(O)C[C@@H](C)CN(C)[C@H](C)[C@H]2OC(=O)O[C@@]21C", "RESULT VALUE": 2}

Q: Quickly give me recorded MIC for `CC[C@H]1OC(=O)[C@H](C)[C@@H](O)[C@H](C)[C@@H](O[C@@H]2O[C@H](C)C[C@H](N(C)C)[C@H]2OC(=O)Nc2ccccc2)[C@](C)(O)C[C@@H](C)CN(C)[C@H](C)[C@H]2OC(=O)O[C@@]21C`
Result: 32

====

Test system: Streptococcus pneumoniae
ASSAY TEXT: Antibacterial activity against erythromycin-resistant Streptococcus pneumoniae B1 expressing ermB gene by broth microdilution method
Assay type: functional
VALUE KIND: MIC
Write the numeric value and follow it with the unit.

{"SMILES STRUCTURE": "CC[C@H]1OC(=O)[C@H](C)[C@@H](OC(=O)Nc2ccccc2C)[C@H](C)[C@@H](O[C@@H]2O[C@H](C)C[C@H](N(C)C)[C@H]2OC(C)=O)[C@](C)(O)C[C@@H](C)CN(C)[C@H](C)[C@H]2OC(=O)O[C@@]21C", "TEST SYSTEM": "Streptococcus pneumoniae", "RESULT VALUE": "256 µg/mL"}
{"SMILES STRUCTURE": "CC[C@H]1OC(=O)[C@H](C)[C@@H](OC(=O)Nc2ccccc2Cl)[C@H](C)[C@@H](O[C@@H]2O[C@H](C)C[C@H](N(C)C)[C@H]2O)[C@](C)(O)C[C@@H](C)CN(C)[C@H](C)[C@H]2OC(=O)O[C@@]21C", "TEST SYSTEM": "Streptococcus pneumoniae", "RESULT VALUE": "64 µg/mL"}
{"SMILES STRUCTURE": "CC[C@H]1OC(=O)[C@H](C)[C@@H](OC(=O)Nc2ccc(F)cc2)[C@H](C)[C@@H](O[C@@H]2O[C@H](C)C[C@H](N(C)C)[C@H]2O)[C@](C)(O)C[C@@H](C)CN(C)[C@H](C)[C@H]2OC(=O)O[C@@]21C", "TEST SYSTEM": "Streptococcus pneumoniae", "RESULT VALUE": "32 µg/mL"}

Hey, can you go through the list below and give me MIC for every item?
1. CC[C@H]1OC(=O)[C@H](C)[C@@H](O)[C@H](C)[C@@H](O[C@@H]2O[C@H](C)C[C@H](N(C)C)[C@H]2OC(=O)Nc2cccc(OC)c2)[C@](C)(O)C[C@@H](C)CN(C)[C@H](C)[C@H]2OC(=O)O[C@@]21C
2. CC[C@H]1OC(=O)[C@H](C)[C@@H](OC(=O)Nc2cccc(C)c2)[C@H](C)[C@@H](O[C@@H]2O[C@H](C)C[C@H](N(C)C)[C@H]2O)[C@](C)(O)C[C@@H](C)CN(C)[C@H](C)[C@H]2OC(=O)O[C@@]21C
3. CC[C@H]1OC(=O)[C@H](C)[C@@H](O)[C@H](C)[C@@H](O[C@@H]2O[C@H](C)C[C@H](N(C)C)[C@H]2OC(=O)Nc2ccccc2C)[C@](C)(O)C[C@@H](C)CN(C)[C@H](C)[C@H]2OC(=O)O[C@@]21C
4. CC[C@H]1OC(=O)[C@H](C)[C@@H](O)[C@H](C)[C@@H](O[C@@H]2O[C@H](C)C[C@H](N(C)C)[C@H]2OC(=O)Nc2ccccc2)[C@](C)(O)C[C@@H](C)CN(C)[C@H](C)[C@H]2OC(=O)O[C@@]21C
5. CC[C@H]1OC(=O)[C@H](C)[C@@H](OC(=O)n2ccnc2)[C@H](C)[C@@H](O[C@@H]2O[C@H](C)C[C@H](N(C)C)[C@H]2OC(C)=O)[C@](C)(O)C[C@@H](C)CN(C)[C@H](C)[C@H]2OC(=O)O[C@@]21C
6. CC[C@H]1OC(=O)[C@H](C)[C@@H](OC(=O)NCc2ccccc2)[C@H](C)[C@@H](O[C@@H]2O[C@H](C)C[C@H](N(C)C)[C@H]2OC(C)=O)[C@](C)(O)C[C@@H](C)CN(C)[C@H](C)[C@H]2OC(=O)O[C@@]21C
7. CC[C@H]1OC(=O)[C@H](C)[C@@H](OC(=O)Nc2ccccc2)[C@H](C)[C@@H](O[C@@H]2O[C@H](C)C[C@H](N(C)C)[C@H]2OC(C)=O)[C@](C)(O)C[C@@H](C)CN(C)[C@H](C)[C@H]2OC(=O)O[C@@]21C

Result:
128 µg/mL
64 µg/mL
64 µg/mL
128 µg/mL
256 µg/mL
128 µg/mL
128 µg/mL

====

System: Streptococcus pyogenes
ASSAY TEXT: Antibacterial activity against erythromycin-susceptible Streptococcus pyogenes clinical isolate by broth microdilution method
Assay type: functional
VALUE KIND: log10(MIC) (log10 of the value in µg/mL)
Values below are the log10 of the recorded MIC, with µg/mL as the unit.

Record excerpt, results attached:
{"SMILES STRUCTURE": "CC[C@H]1OC(=O)[C@H](C)[C@@H](OC(=O)Nc2cccc(OC)c2)[C@H](C)[C@@H](O[C@@H]2O[C@H](C)C[C@H](N(C)C)[C@H]2OC(C)=O)[C@](C)(O)C[C@@H](C)CN(C)[C@H](C)[C@H]2OC(=O)O[C@@]21C", "log10(MIC)": 0.30}
{"SMILES STRUCTURE": "CC[C@H]1OC(=O)[C@H](C)[C@@H](OC(=O)Nc2cccc(F)c2)[C@H](C)[C@@H](O[C@@H]2O[C@H](C)C[C@H](N(C)C)[C@H]2O)[C@](C)(O)C[C@@H](C)CN(C)[C@H](C)[C@H]2OC(=O)O[C@@]21C", "log10(MIC)": 0.30}
{"SMILES STRUCTURE": "CC[C@H]1OC(=O)[C@H](C)[C@@H](O)[C@H](C)[C@@H](O[C@@H]2O[C@H](C)C[C@H](N(C)C)[C@H]2OC(=O)Nc2cccc(Cl)c2)[C@](C)(O)C[C@@H](C)CN(C)[C@H](C)[C@H]2OC(=O)O[C@@]21C", "log10(MIC)": 0.00}
{"SMILES STRUCTURE": "CC[C@H]1OC(=O)[C@H](C)[C@@H](OC(=O)Nc2ccccc2C)[C@H](C)[C@@H](O[C@@H]2O[C@H](C)C[C@H](N(C)C)[C@H]2OC(C)=O)[C@](C)(O)C[C@@H](C)CN(C)[C@H](C)[C@H]2OC(=O)O[C@@]21C", "log10(MIC)": 0.00}

Hey, can you go through the list below and give me log10(MIC) for every item?
1. CCCCCCNC(=O)O[C@@H]1[C@@H](C)N(C)C[C@H](C)C[C@@](C)(O)[C@H](O[C@@H]2O[C@H](C)C[C@H](N(C)C)[C@H]2O)[C@@H](C)[C@H](OC(=O)Nc2ccccc2)[C@@H](C)C(=O)O[C@H](CC)[C@@]1(C)O
2. CC[C@H]1OC(=O)[C@H](C)[C@@H](OC(=O)Nc2cccc(C)c2)[C@H](C)[C@@H](O[C@@H]2O[C@H](C)C[C@H](N(C)C)[C@H]2O)[C@](C)(O)C[C@@H](C)CN(C)[C@H](C)[C@@H](OC(=O)NCc2ccc(C)cc2)[C@]1(C)O
3. CC[C@H]1OC(=O)[C@H](C)[C@@H](OC(=O)Nc2cccc(C(F)(F)F)c2)[C@H](C)[C@@H](O[C@@H]2O[C@H](C)C[C@H](N(C)C)[C@H]2O)[C@](C)(O)C[C@@H](C)CN(C)[C@H](C)[C@H]2OC(=O)O[C@@]21C
4. CC[C@H]1OC(=O)[C@H](C)[C@@H](O)[C@H](C)[C@@H](O[C@@H]2O[C@H](C)C[C@H](N(C)C)[C@H]2OC(=O)n2ccnc2)[C@](C)(O)C[C@@H](C)CN(C)[C@H](C)[C@H]2OC(=O)O[C@@]21C
5. CC[C@H]1OC(=O)[C@H](C)[C@@H](O)[C@H](C)[C@@H](O[C@@H]2O[C@H](C)C[C@H](N(C)C)[C@H]2OC(=O)Nc2cccc(C)c2)[C@](C)(O)C[C@@H](C)CN(C)[C@H](C)[C@H]2OC(=O)O[C@@]21C

Result:
1: 0.00; 2: 0.60; 3: 0.00; 4: 0.90; 5: 0.00

Hey, can you go through the list below and give me log10(MIC) for every item?
1. CC[C@H]1OC(=O)[C@H](C)[C@@H](OC(=O)Nc2cccc(C)c2)[C@H](C)[C@@H](O[C@@H]2O[C@H](C)C[C@H](N(C)C)[C@H]2O)[C@](C)(O)C[C@@H](C)CN(C)[C@H](C)[C@H]2OC(=O)O[C@@]21C
2. CC[C@H]1OC(=O)[C@H](C)[C@@H](OC(=O)Nc2ccccc2)[C@H](C)[C@@H](O[C@@H]2O[C@H](C)C[C@H](N(C)C)[C@H]2O)[C@](C)(O)C[C@@H](C)CN(C)[C@H](C)[C@@H](OC(=O)NCc2ccccc2)[C@]1(C)O
3. CC[C@H]1OC(=O)[C@H](C)[C@@H](O)[C@H](C)[C@@H](O[C@@H]2O[C@H](C)C[C@H](N(C)C)[C@H]2OC(=O)Nc2cccc(F)c2)[C@](C)(O)C[C@@H](C)CN(C)[C@H](C)[C@H]2OC(=O)O[C@@]21C

Result:
1. 0.00
2. 0.30
3. 0.00
